Taken from the nanobody polyreactivity screen of Harvey et al. (2022).

- ASSAY OVERVIEW: yeast display, Sf9 membrane polyspecificity reagent, FACS + sequencing; frameworks hold sequencing errors
ATTRIBUTE MEASURED: polyreactivity (PSR sort gate)

Sample records with polyreactivity (PSR sort gate):
QVQLVESGGGLVQAGGSLRLSCASSGSTFPVYAMGWYRQPPGKDRELVAAITSGGSTYYADSVKGRFTISRDNEKNTVSLQMNIRKPEDTAVYYCNADGYLSYAFDYWGQGTQVTVSS; low polyreactivity
QVQHVESGGGLVQAGGSLRLSCAASGRTFPPYDMGWYRQAPGKERELVAAITSDGSTSYADSVKGRFTISRDNAKNTVYLQMNSLKPEDTAVYYCAAYRWYSAARMGYWGQGTQVTVSS; high polyreactivity
QVQLVESGRGLVQAGGSLRLSCAASGRTFWIYAMGWYRQAPGKERELVAAISRGGSTYADSVKGRFTISRDNAKNTVYLQMNSLKPEDTAVYYCAASTPQYQYYYWGQGTQVTVSS; high polyreactivity
QVQLVESGGGLVQAGGSLRLSCAASGSIIAYYGMGWYRQAPGKESELVAAITSDASTYYADSVKWRFTISRDNAKKTDYLQMNSLKPVDTAVYYCYAYSYYYVYGYDMGYWGQGTQVTVSS; low polyreactivity
QVQLGESGGGLVQAGGCLRLSCAASGSIFAANAMGWYRQAPGKERELVAAINSGDSTNYADSVKGRFTISRDYAKKTVYLQMNSLKPEDTAVYYCARGLEERYDYWGQGTQVTVSS; low polyreactivity
QVQLVESGGGLVQAGGSLRLSCAASGRTFARYTMGWYRQAPGKERELVAAITSGGGSTYYADSVKGRFTISRDNAKNTVYLQMNSLKPEDTAVYYCNARRYYYITGRYGYWGQGTQVTVSS; high polyreactivity

// polyreactivity (PSR sort gate) value for QVQLVESGGGLVQAGGSLRLSCAASGSTFLLNTMGWYRQAPGKERELVAVINSDDSTYYADSVKGRFTISRDNAKNTVYLQMNSLKPEDTAVYYCAAEPQYTRHMDSWGQGTQVTVSS : low polyreactivity

Value of measured polyreactivity (PSR sort gate) for the entry QVQLVESGGGLVQAGGSLRLSCAASGSTIIYYAMGWYRQAPGKESELVATISTSGTSTYYADSVKGRFTISRDNAKNTVYLQMNSLKPEDTAVYYCNAVHRNWRQKFDYWGQGTQVTVSS : high polyreactivity

Recorded polyreactivity (PSR sort gate) (sequence QVQLVESGGGLVQAGGSLRLSCAASGFTFDTYGMGWYRQAPGKERELVAAITGDGDSTYYADSVKGRFTISRDNAKNTVYLQMNSLKPEDTAVYYCATDQDVVGYWTIYYYAWGYEYCGQGTQVTVSS ): low polyreactivity

Recorded result, QVQLVESGGGLVQAGGSLRLSCAASGSTQVYYDMGWYRQAPAKERELVATITGTDSTYYADSVKGRFTISRDNAKNTVYLQMNSLKPEDTADCAADRAASRPDYDYWGEGTQVTVSS , polyreactivity (PSR sort gate): low polyreactivity

Value of measured polyreactivity (PSR sort gate) for the entry QVQLVESGGGLVQAGVSLRLSCAASGRTFFPNAMGWYRQAPGKERELVAAITHSGGTTYYADSVKGRFTISRDNAKNTVYLQMNSLKPEDTAVYYCARGQPRYYNSAYGYWGLGTQVTVSS : high polyreactivity

* * *

- ASSAY OVERVIEW: yeast display, Sf9 membrane polyspecificity reagent, FACS + sequencing; frameworks hold sequencing errors
ATTRIBUTE MEASURED: polyreactivity (PSR sort gate)

QVQLVESGGGLVQAGGSLRLSCAASGRIFRYYAMGWYRQAPGKERELVAAISGSGGSTYYADSVKGRFTISRDNAKNTVYLQMNSLKPEDTAVYYCNARYRIPSGEGDHWGQGTQVTVSS; low polyreactivity
QVQLVESGGGLVQAGGSLRLSCAASGFIDYDNAMGWYRQAPGKERELVAAITSGGSTYYADSVKGRFTISRDNAKNTVYLQMNSLKPEDTAVYYCARESGYRAYEIQFYYWGQGTQVTVSS; high polyreactivity
QVQLVESGGGLVQAGGSLRLSCAASGSTFGYNAMGWYRQATGKERELVARITSSGGSTYYADSVKGRFTISRDNAKNTVYLQMNILKPEDTAVYYCAAGYLSGNYARYGYWGQGTQVTVSS; high polyreactivity
QVQLQESGGGLVQEGGSLRLSCASSGNISPPADMGWYRQAPGKERELVASMGTGGTTNYADSVKGRFTISRDNAKNTVYLQMNSLKPDDTAVYYCAAVRYEYNPYDYWGQGTQVTVSS; low polyreactivity
QVQLVESGGGLVQAGGSLRLSCAASGITFTQYTMGWYRQARGKQRELVAAISSSGGRTYYADSVKGRYTISRDNAKKTVYLQMNSLKPEDTAVYYCAAAWRRTFDYCGQGTQVTVSS; high polyreactivity
QVQLQERGGGLVQARGSLRLSCAASGNISYRTNMGWYRPAPGKERELVASIGGGTTNYADSVKGRFTISRDNAKKTVYLQMNSLKPVDTAVYYCAVVGTTQFRHRYWGQGTQVTASS; high polyreactivity
QVQLVESGGGLVQAGGSLRLSCSASGIIFGGNAMGWYRQAPGKERELVAGISSRGGSTYYADSVKGRFTISRDNAKNTVYLQMNSLKPEDTAVYYCAAVSSRRPGYEYYYWGQGTQVTVSS; high polyreactivity
QVQLVESGGGLVQAGGSLRLSCAASGSILGTYAMGWYRQAPGKERELVAAISWNGGSTYYADSVKGRFTISRDNAKNTVYLQMNSLKPEYTAVYYCAARQWSQGWYDYWGQGTQVTLSS; high polyreactivity

Note to self: polyreactivity (PSR sort gate) recorded for QVQLVDSGGGLVQAGGSLRLSCAASGRIFRGYAMGWYRQAPGKERELVAAINRGSSTYYADSVKGRFTISRDNAKNTVYLQMNSLKPEDTAVYYCAVKGYLPYTGIFDYWGQGTQVTVSS was high polyreactivity

Lab book: polyreactivity (PSR sort gate) of QVQVVESGGGLVQAGGSLRLSCAASGRTFGVYAMGWSRQAPGKERELVAVINRSGGSTYYADSVKGRFTISRDNAKYTVYLQMNSLNPEDTAVYSCDKASAYSAYDDHDDYWGHGTQVTVSS noted as high polyreactivity

Note to self: polyreactivity (PSR sort gate) recorded for QVQLVESGGGLVQAGGSLRLSCAASGSTFVGYAMGWYRLAPGKEREFVAAITRGGSTNYADSVKGRFTISRDNAKNTVYLQMNSLKPEDTAVYYCAARDRREGFNFDYCGQGTQVTVSS was low polyreactivity

// polyreactivity (PSR sort gate) lookup, sequence = QVQLVESGGGLVQAGGSLRLSCAASGSIFYYNAMGWYRQAPGKERELDANISWNGASTYYADSVKGRFTISRDNAKNSVYLQMLSLKPEDTAVYYCATAGKGDPPWLPSEVTDYYYWGQGTQVTVSL , result: low polyreactivity

// polyreactivity (PSR sort gate) lookup, sequence = QVQLVESGGGLVQAGGSLRLSCAASGNTFLYYGMGWYRQAPGKERELVAAITQSGGTTYYADSVKGRCTISRDNAKNPVYLQMNSLKPEDTAVYYCAATRYYYYWYVYDDRGDYWGQGTQVTVSS , result: low polyreactivity

* * *

- ASSAY OVERVIEW: yeast display, Sf9 membrane polyspecificity reagent, FACS + sequencing; frameworks hold sequencing errors
ATTRIBUTE MEASURED: polyreactivity (PSR sort gate)

These solved cases illustrate the format of a correct answer.
QVQLVESGGGLVQAGGSLRLSCAASGNTFYGYAMGWYSQAPGQERELVASITLSGDSTYYADSVKGRFTISRDNAKNTVYLQMNTLKPEDTAVYYCAGVYTYPLGYYHYTYDYWGQGTQVTVSS; low polyreactivity
QVQLVESGGGLVQAGGSLRLSCAASGLTIAAYAMGWYRQAPGKERELVAAITQRGGSTYYADSVKGRFTISRDNAKNTVYLQMNSLKPEDTAVYYCAADSTWWWWKLYSPYGYDYWGQGTQVTVSS; low polyreactivity
QVQLVESGGGLVQAGGSLRLSCAASGIIFYVYAMGWYRQAPGKERELVAAISSGGRTNYADSVKGRFTISRDNAKNTVYLQMNSLKPEDTAVYYCAAKSVRRRLGYWGQGTQVTVSS; high polyreactivity
QVQLVESGGGLVQAGGSLRLSCAASGITFWSNAMGWYRQAPGKERELVAAITSGGNTNYADSVKGRFTISRDNAKNTVYLQMNSLKPEDTAVYYCAKRWTAREPWRKGMGYWGQGTQVTVSS; high polyreactivity

Entry under test: QVQLVESGGGLVQAGGSLLLSCAASGRTFILNAMGWYSQAPGKERELVAAISWSGGSTYYADSVKGRFTISRDNAKNTVYLQMNSLKPEDTAVYYCAAETYAYLFHTYDYWGQGTQVTVSS . Its polyreactivity (PSR sort gate) was low polyreactivity

* * *

- ASSAY OVERVIEW: yeast display, Sf9 membrane polyspecificity reagent, FACS + sequencing; frameworks hold sequencing errors
ATTRIBUTE MEASURED: polyreactivity (PSR sort gate)

QVQLVESGGGLVQAGGSLRLSCAASGNIFYANDMGWYIQAPGKERELVAAITGSGGSTYYADSVKGRFTISRDNAKNTVYLQMDSLKPEDTAVYYCATPYDIQWASESHDSWGQGTQVTVSS; low polyreactivity
QVQLVESGVGLVQAGGSLRLSCAASGITFGRNTMGWYRQAPGKERELVAAIDSGGNTYADSVKGRFTISRDNAKNTVYLQMNSLRSEDTAVYYCNARETHQSRYGYWGQGTQVTVSS; low polyreactivity
